# TARGET: Human Androgen Receptor (Homo sapiens (Human), UniProt P10275)
# Sequence (P10275 whole entry): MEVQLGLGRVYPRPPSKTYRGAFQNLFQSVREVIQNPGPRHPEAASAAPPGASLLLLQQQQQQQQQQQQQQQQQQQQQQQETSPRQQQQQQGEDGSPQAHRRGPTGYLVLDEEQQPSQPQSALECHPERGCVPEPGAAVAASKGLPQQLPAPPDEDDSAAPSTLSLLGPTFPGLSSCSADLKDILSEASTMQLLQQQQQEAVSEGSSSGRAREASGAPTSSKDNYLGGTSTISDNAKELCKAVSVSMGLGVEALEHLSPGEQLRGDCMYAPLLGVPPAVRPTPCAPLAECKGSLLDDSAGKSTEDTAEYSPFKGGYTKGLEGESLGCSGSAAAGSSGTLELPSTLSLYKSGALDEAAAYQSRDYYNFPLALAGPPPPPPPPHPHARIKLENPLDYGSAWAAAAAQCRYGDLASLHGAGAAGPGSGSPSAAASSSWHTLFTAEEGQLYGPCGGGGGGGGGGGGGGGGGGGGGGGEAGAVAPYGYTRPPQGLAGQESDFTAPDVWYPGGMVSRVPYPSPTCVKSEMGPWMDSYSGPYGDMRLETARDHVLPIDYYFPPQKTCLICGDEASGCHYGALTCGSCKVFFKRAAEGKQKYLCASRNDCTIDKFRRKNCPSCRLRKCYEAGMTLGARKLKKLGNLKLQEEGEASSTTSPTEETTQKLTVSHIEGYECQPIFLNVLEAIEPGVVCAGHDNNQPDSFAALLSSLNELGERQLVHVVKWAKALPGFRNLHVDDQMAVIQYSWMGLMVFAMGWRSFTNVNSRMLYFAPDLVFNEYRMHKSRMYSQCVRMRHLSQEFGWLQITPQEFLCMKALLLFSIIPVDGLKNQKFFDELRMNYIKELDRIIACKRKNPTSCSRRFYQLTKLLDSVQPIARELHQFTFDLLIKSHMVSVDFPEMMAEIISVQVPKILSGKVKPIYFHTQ
# EXPERIMENTAL PROTOCOL: Androgen receptor assay: [3H]R1881 displacement, cytosol of HEK-293 cells transfected with hAR (hydroxylapatite assay)
# Format: binding
# APPLIED CONDITIONS: relative binding affinity, R1881 = 100; […]
REPORTED ENDPOINT: Human Androgen Receptor Binding RBA (%) R1881 = 100
Respond with the bare value in %.

Solved cases below.
CHEMICAL STRUCTURE	VALUE UNIT	MEASURED RESULT
CC1(C)C(=O)N(c2ccc(C#N)c(Cl)c2)C(=S)N1CCCOc1ccc(-c2cc[n+]([O-])cc2)c(F)c1	%	122
COc1cc(-c2ccncc2)ccc1OCCCN1C(=O)N(c2ccc(C#N)c(Cl)c2)C(=O)C1(C)C	%	2.5
CC1(C)C(=O)N(c2ccc(C#N)c(Cl)c2)C(=S)N1CCCOc1ccc(-c2cccnc2)cc1	%	269
Cc1c(N2C(=O)N(c3ccc(-c4ccncc4)cc3)C(C)(C)C2=O)ccc(C#N)c1C(F)(F)F	%	0.8

# evaluate next
Please list Human Androgen Receptor Binding RBA (%) R1881 = 100 recorded for the compound "Cc1c(N2C(=O)C(C)(C)N(CCCOc3ccc(-c4ccccn4)cc3F)C2=S)ccc(C#N)c1Cl"
155

Values were extracted from patent US9682960B2.
